The measurements presented in this section are drawn from patent US20110086759A1.

- Test system: Echinochloa crus-galli (ECHCG)
- experiment: Pre-emergence biological efficacy, glasshouse pot test
- Assay type: in vivo
- run-parameters: 312 h, pre-emergence, rate 1,000 g/ha, evaluated after 13 days (100=total damage to plant; 0=no damage), read-out: Percentage damage caused to weed species, ECHCG
result-type: pest or weed control at 1000 g/ha (%)
# output: bare number, implied unit %

Recorded results for 5 molecules are shown here.
molecule | pest or weed control at 1000 g/ha / %
COC(=O)c1nc(C2CC2)nc(N(CCC#N)Cc2ccco2)c1Cl | 20
COC(=O)c1nc(C2CC2)nc(N(C)Cc2cc(OC)cc(OC)c2)c1Cl | 0
CCN(Cc1cccs1)c1nc(C2CC2)nc(C(=O)OC)c1Cl | 20
CCOC(=O)c1nc(C2CC2)nc(NCc2ccco2)c1Cl | 90
CCOc1ccc(CN(C)c2nc(C3CC3)nc(C(=O)OC)c2Cl)cc1OCC | 0

Noted for `COC(=O)c1nc(C2CC2)nc(N(C)Cc2nonc2C)c1Cl` : its pest or weed control at 1000 g/ha reads 20

Noted for `COC(=O)c1nc(C2CC2)nc(N(C)Cc2ccccc2Cl)c1Cl` : its pest or weed control at 1000 g/ha reads 40

Noted for `C=Cc1c(NCc2ccco2)nc(-c2ccc(Cl)c(OC)c2F)nc1C(=O)OC` : its pest or weed control at 1000 g/ha reads 80

Noted for `C=Cc1c(NCc2ccco2)nc(C2CC2)nc1C(=O)OC` : its pest or weed control at 1000 g/ha reads 20

---

pest or weed control at 1000 g/ha values, listed per item
- System: Setaria faberi (SETFA)
- experiment: Post-emergence biological efficacy, glasshouse pot test
- Format: in vivo
- run-parameters: 312 h, Rate 1,000 g/ha, post-emergence spray, evaluated after 13 days (100=total damage to plant; 0=no damage to plant), read-out: Percentage damage caused to weed species, post-emergence, SETFA
# output: bare number, implied unit %

molecule | system-name | result-type | unit-abbrev | result-number
CCC(C)N(Cc1ccccc1)c1nc(C2CC2)nc(C(=O)OC)c1Cl (stereo not drawn) [Compound 148-60] | Setaria faberi (SETFA) | pest or weed control at 1000 g/ha | % | 40

Noted for COC(=O)c1nc(Cl)nc(NC2CC2)c1Cl [Compound 207-30] : its pest or weed control at 1000 g/ha reads 0

Noted for C=CCN(Cc1cccs1)c1nc(C2CC2)nc(C(=O)OC)c1Cl [Compound 151-140] : its pest or weed control at 1000 g/ha reads 50

Noted for C=CCN(Cc1ccc(F)cc1)c1nc(C2CC2)nc(C(=O)OC)c1Cl [Compound 151-66] : its pest or weed control at 1000 g/ha reads 50

Noted for COC(=O)c1nc(-c2ccc(C)c(F)c2)nc(NCc2ccco2)c1Cl [Compound 240-48] : its pest or weed control at 1000 g/ha reads 10

Noted for COC(=O)c1nc(Cl)nc(NCc2ccc(C)o2)c1Cl [Compound 207-50] : its pest or weed control at 1000 g/ha reads 0

Noted for CCOC(=O)CCN(Cc1ccccc1)c1nc(C2CC2)nc(C(=O)OC)c1Cl [Compound 162-60] : its pest or weed control at 1000 g/ha reads 0

Noted for CCCOC(=O)c1nc(C2CC2)nc(NCc2ccco2)c1Cl [Compound 198-125] : its pest or weed control at 1000 g/ha reads 90

Noted for COC(=O)c1nc(C2CC2)nc(N(C)CC2OCCO2)c1Cl [Compound 5-54] : its pest or weed control at 1000 g/ha reads 30

---

- Test system: Echinochloa crus-galli (ECHCG)
- experiment: Pre-emergence biological efficacy, glasshouse pot test
- Format: in vivo
- run-parameters: 312 h, pre-emergence, rate 1,000 g/ha, evaluated after 13 days (100=total damage to plant; 0=no damage), read-out: Percentage damage caused to weed species, ECHCG
pest or weed control at 1000 g/ha values, listed per item
Reply with the number, then its unit.

molecule | result
COC(=O)c1nc(C2CC2)nc(N(C)Cc2ccc(C(F)(F)F)cc2)c1Cl [Compound 5-77] | 0%

Noted for CCCCN(Cc1ccccc1)c1nc(C2CC2)nc(C(=O)OC)c1Cl [Compound 147-60] : its pest or weed control at 1000 g/ha reads 20%

---

- Test system: Amaranthus retoflexus (AMARE)
- experiment: Pre-emergence biological efficacy, glasshouse pot test
- Format: in vivo
- run-parameters: Amaranthus retroflexus, 312 h; pre-emergence, 1,000 g/ha, evaluated after 13 days (100=total damage; 0=no damage); read-out: Percentage damage AMARE
pest or weed control at 1000 g/ha values, listed per item
# output: bare number, implied unit %

compound | result-number
COC(=O)c1nc(C2CC2)nc(NC(C)COc2ccccc2)c1Cl (stereo not drawn) | 10
COC(=O)c1nc(C2CC2)nc(NC(CO)C2CCOCC2)c1Cl (stereo not drawn) | 60
CCOC(=O)[C@H](CSc1ccccc1)Nc1nc(C2CC2)nc(C(=O)OC)c1Cl [4-292 (R)] | 100
COC(=O)c1nc(C2CC2)nc(NCCC2OCCO2)c1Cl | 100
COC(=O)c1nc(C2CC2)nc(NCc2ccc(Cl)cc2Cl)c1Cl | 40

Noted for CCCCCc1ccc(C(C)Nc2nc(C3CC3)nc(C(=O)OC)c2Cl)cc1 (stereo not drawn) : its pest or weed control at 1000 g/ha reads 60

Noted for `COC(=O)c1nc(C2CC2)nc(NCc2cccc(C(F)(F)F)c2)c1Cl` : its pest or weed control at 1000 g/ha reads 60

Noted for `O=C(O)c1nc(C2CC2)nc(NC2CC2)c1Cl` : its pest or weed control at 1000 g/ha reads 100

Noted for COC(=O)c1nc(C2CC2)nc(N[C@@H](CO)[C@@H](O)c2ccc([N+](=O)[O-])cc2)c1Cl [4-275 (S,S)] : its pest or weed control at 1000 g/ha reads 100

---

- Test system: Alopecurus myosuroides (ALOMY)
- experiment: Post-emergence biological efficacy, glasshouse pot test
- Assay type: in vivo
- run-parameters: 312 h, post-emergence, 1,000 g/ha, evaluated after 13 days (100=total damage; 0=no damage), read-out: Percentage damage caused to weed species, ALOMY
result-type: pest or weed control at 1000 g/ha
Reply with the number, then its unit.

Recorded results for 5 compounds are shown here.
compound | system-name | result-type | result
COC(=O)c1nc(C2CC2)nc(NCc2cc(F)ccc2F)c1Cl [Compound 4-98] | Alopecurus myosuroides (ALOMY) | pest or weed control at 1000 g/ha | 40%
COC(=O)c1nc(C2CC2)nc(NC(C)c2ccc(Br)cc2)c1Cl (stereo not drawn) [Compound 4-177] | Alopecurus myosuroides (ALOMY) | pest or weed control at 1000 g/ha | 20%
COC(=O)c1nc(C2CC2)nc(NCc2ccccn2)c1Cl [Compound 4-151] | Alopecurus myosuroides (ALOMY) | pest or weed control at 1000 g/ha | 60%
COC(=O)c1nc(C2CC2)nc(NCc2cccs2)c1Cl [Compound 4-140] | Alopecurus myosuroides (ALOMY) | pest or weed control at 1000 g/ha | 30%
COC(=O)c1nc(C2CC2)nc(NC2(/C=C/c3ccccc3)CC2)c1Cl [4-19 (E)] | Alopecurus myosuroides (ALOMY) | pest or weed control at 1000 g/ha | 20%

COC(=O)c1nc(C2CC2)nc(NCc2ccccc2C)c1Cl [Compound 4-71] tested on Alopecurus myosuroides (ALOMY) gave pest or weed control at 1000 g/ha: 20%

CCOC(=O)C(Nc1nc(C2CC2)nc(C(=O)OC)c1Cl)c1ccccc1 (stereo not drawn) [Compound 4-214] tested on Alopecurus myosuroides (ALOMY) gave pest or weed control at 1000 g/ha: 50%

COC(=O)c1nc(C2CC2)nc(NCc2ccc(Cl)c(OC)c2)c1Cl [Compound 4-116] tested on Alopecurus myosuroides (ALOMY) gave pest or weed control at 1000 g/ha: 60%

COC(=O)c1nc(C2CC2)nc(NCCc2c[nH]c3ccc(OC)cc23)c1Cl [Compound 4-227] tested on Alopecurus myosuroides (ALOMY) gave pest or weed control at 1000 g/ha: 10%

---

- Test system: Setaria faberi (SETFA)
- experiment: Post-emergence biological efficacy, glasshouse pot test
- Type: in vivo
- run-parameters: 312 h, Rate 1,000 g/ha, post-emergence spray, evaluated after 13 days (100=total damage to plant; 0=no damage to plant), read-out: Percentage damage caused to weed species, post-emergence, SETFA
result-type: pest or weed control at 1000 g/ha (%)
# output: bare number, implied unit %

Recorded results for 3 compounds are shown here.
molecule | result-number
COC(=O)c1nc(C2CC2)nc(N(C)Cc2c(Cl)cccc2Cl)c1Cl | 20
COC(=O)c1nc(-c2ccc(Cl)c(C(F)(F)F)c2)nc(NCc2ccco2)c1Cl | 20
COC(=O)c1nc(-c2ccc(F)cc2)nc(NCc2ccco2)c1Cl | 20

// next item, pest or weed control at 1000 g/ha requested
Noted for `CCN(Cc1ccco1)c1nc(C2CC2)nc(C(=O)OC)c1Cl` : its pest or weed control at 1000 g/ha reads 90
